- Subject of test: succinate dehydrogenase (SDH) (Homo sapiens)
- Construct: endogenous in cells; complex captured with Abcam Complex II Enzyme Activity Microplate Assay ab109908
- Sequence (P31040 43-664): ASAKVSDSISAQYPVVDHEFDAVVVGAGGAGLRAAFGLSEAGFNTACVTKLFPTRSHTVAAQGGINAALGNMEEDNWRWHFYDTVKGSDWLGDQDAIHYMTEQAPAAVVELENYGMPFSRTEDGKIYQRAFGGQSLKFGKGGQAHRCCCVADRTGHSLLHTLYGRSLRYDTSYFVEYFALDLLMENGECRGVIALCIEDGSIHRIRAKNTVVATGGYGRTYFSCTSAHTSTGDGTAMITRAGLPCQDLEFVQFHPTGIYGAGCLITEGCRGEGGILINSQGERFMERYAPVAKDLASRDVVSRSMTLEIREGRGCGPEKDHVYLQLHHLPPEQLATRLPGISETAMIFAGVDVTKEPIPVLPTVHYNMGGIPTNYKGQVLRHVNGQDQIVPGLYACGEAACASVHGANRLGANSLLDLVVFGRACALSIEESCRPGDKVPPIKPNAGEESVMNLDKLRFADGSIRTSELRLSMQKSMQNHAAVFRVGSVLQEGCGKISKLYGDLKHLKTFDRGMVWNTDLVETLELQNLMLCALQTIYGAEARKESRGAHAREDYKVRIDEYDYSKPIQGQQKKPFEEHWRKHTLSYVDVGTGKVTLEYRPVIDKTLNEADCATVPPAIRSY
- Sequence (P21912 29-280 partner): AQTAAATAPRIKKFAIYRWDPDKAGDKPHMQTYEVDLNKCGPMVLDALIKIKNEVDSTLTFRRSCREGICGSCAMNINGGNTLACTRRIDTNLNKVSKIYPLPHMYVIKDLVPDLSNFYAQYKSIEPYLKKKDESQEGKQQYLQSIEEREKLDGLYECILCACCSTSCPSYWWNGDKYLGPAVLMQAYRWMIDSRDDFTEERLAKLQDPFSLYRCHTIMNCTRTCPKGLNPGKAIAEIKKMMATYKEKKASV
- Sequence (Q99643 30-169 partner): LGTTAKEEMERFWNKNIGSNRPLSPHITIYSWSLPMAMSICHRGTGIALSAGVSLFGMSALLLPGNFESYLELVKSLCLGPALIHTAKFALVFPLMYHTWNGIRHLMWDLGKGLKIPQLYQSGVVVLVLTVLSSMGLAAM
- Sequence (O14521 57-159 partner): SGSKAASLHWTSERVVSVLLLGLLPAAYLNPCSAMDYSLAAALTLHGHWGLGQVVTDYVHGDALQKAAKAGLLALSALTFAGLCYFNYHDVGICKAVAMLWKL
- Measurement notes: Complex II Enzyme Activity Microplate Assay (SDH inhibition)
- Experimental conditions: dose-response curve, FIG. 1; enzyme extracted from HepG2 cells
pIC50: −log10 of the molar value.
Attribute measured: pIC50

1: O=C(O)CC(=O)C(=O)O [oxaloacetate, 3-carboxy-3-oxopropanoate]
2: Cc1cc2nc3c(=O)[nH]c(=O)nc-3n(C[C@H](O)[C@H](O)[C@H](O)CO)c2cc1C
Returns: the label, 1 or 2 , whose recorded pIC50 is the lower number. To answer, give the label that identifies your chosen option. 2
(2: 4.97, 1: 5.74)

====

- Subject of test: recombinant human GOT (Homo sapiens)
- Construct: purchased Abcam ab99147
- Sequence (P17174 whole entry): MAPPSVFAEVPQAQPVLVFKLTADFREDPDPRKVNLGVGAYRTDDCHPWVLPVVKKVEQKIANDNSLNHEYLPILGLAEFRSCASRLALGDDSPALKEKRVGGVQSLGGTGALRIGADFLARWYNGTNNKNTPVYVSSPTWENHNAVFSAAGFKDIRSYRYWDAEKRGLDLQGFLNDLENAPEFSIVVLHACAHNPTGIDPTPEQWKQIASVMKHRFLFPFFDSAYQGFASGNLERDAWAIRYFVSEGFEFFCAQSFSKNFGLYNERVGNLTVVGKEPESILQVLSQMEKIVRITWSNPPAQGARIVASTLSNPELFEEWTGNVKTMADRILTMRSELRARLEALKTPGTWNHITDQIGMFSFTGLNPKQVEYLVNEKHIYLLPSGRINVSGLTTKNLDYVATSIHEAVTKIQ
- Measurement notes: GOT activity assay (inhibition of glutamate formation), photometric kit
- Format: biochemical
- Experimental conditions: inhibition of glutamate formation, confirmatory assay; read-out: IC50(μM) in confirmatory assay
Where a name gives a salt, the structure may show the parent alone.
Attribute measured: IC50 (µM)

INSERT INTO measurements (compound, observed) VALUES
  ('CN1CCc2cccc3c2[C@H]1Cc1ccc(O)c(O)c1-3.CN1CCc2cccc3c2[C@H]1Cc1ccc(O)c(O)c1-3.Cl.Cl.O [CBG000083, hydrochloride hemihydrate]', 58.1);

P: CC(CCc1ccc(O)cc1)NCCc1ccc(O)c(O)c1 (stereo not drawn) [CBG000332, Dobutamine hydrochloride]
Q: Cc1cc2nc3c(=O)[nH]c(=O)nc-3n(C[C@H](O)[C@H](O)[C@H](O)CO)c2cc1C
Which of these two has the smaller recorded IC50: P or Q ? Selection: enter the item's label. Q
